target: Kv1.3 potassium channel (Homo sapiens, UniProt P22001); construct: expressed in transfected cells; assay: Kv1.3 potassium channel blocker activity, automated whole-cell patch clamp (Patchliner); format: cell-based; conditions: CHO-K1 cells stably expressing Kv1.3; whole-cell current, Hill fit
Sequence (P22001 whole entry): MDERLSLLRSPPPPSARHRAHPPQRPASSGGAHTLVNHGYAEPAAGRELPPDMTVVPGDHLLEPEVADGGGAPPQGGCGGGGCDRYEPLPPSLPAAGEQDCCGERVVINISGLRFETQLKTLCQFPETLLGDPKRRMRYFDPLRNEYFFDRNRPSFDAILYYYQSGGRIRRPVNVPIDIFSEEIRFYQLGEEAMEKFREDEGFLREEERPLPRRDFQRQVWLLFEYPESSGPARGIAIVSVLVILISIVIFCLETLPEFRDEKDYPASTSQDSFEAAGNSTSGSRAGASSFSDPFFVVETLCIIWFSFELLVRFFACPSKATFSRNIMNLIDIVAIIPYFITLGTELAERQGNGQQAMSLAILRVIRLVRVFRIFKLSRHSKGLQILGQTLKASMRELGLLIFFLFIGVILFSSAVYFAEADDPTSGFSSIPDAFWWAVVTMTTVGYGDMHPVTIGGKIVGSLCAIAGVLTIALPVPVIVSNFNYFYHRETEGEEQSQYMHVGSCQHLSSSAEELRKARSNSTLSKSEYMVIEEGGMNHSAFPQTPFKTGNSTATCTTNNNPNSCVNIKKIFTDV
Parameter Measured: IC50

compound=C[C@H](O)[C@H]1NC(=O)[C@@H]2C[C@H](c3c(O)ccc(Cl)c3Cl)CCN2C1=O meas_value="< 1 µM"
compound="O=C1N[C@H](CO)C(=O)N2CC(c3c(O)ccc(Cl)c3Cl)CC12 (some centres unmarked)" meas_value="< 1 µM"
compound="O=C1[C@@H]2C[C@H](c3c(O)ccc(Cl)c3Cl)CCN2C(=O)[C@@H]2[C@H](O)CCN12 (single isomer, unassigned; isomer 1)" meas_value="< 10 µM"
compound="O=C1[C@H]2C[C@H](O)CN2C(=O)[C@H]2C[C@@H](c3c(O)ccc(Cl)c3Cl)CCN12 (single isomer, unassigned; isomer 1)" meas_value="< 10 µM"
compound="C[C@@H]1NC(=O)C2CC(c3c(O)ccc(Cl)c3Cl)CCN2C1=O (some centres unmarked)" meas_value="< 10 µM"
compound=CC(C)[C@H](O)[C@H]1NC(=O)[C@@H]2C[C@H](c3c(O)ccc(Cl)c3Cl)CCN2C1=O meas_value="< 1 µM"
compound=O=C1[C@@H]2C[C@H](c3c(O)ccc(Cl)c3Cl)CCN2C(=O)[C@H]2C[C@@H](O)CN12 meas_value="< 1 µM"
compound="O=C1[C@@H]2C[C@H](c3c(O)ccc(Cl)c3Cl)CCN2C(=O)CN1C1CC(O)C1 (single isomer, unassigned; isomer 1) [Compound 14]" meas_value="< 1 µM"
compound="O=C1[C@@H]2C[C@H](c3c(O)ccc(Cl)c3Cl)CCN2C(=O)[C@H]2C[C@H](O)CN12 (single isomer, unassigned; isomer 2)" meas_value="< 1 µM"
compound=O=C1[C@H]2C[C@@H](c3c(O)ccc(Cl)c3Cl)CCN2C(=O)CN1C(CO)CO meas_value="< 10 µM"
compound=O=C1[C@@H]2C[C@H](c3c(O)ccc(Cl)c3Cl)CCN2C(=O)CN1C(CO)CO meas_value="< 1 µM"
compound=C[C@@H](O)[C@H]1NC(=O)[C@H]2C[C@@H](c3c(O)ccc(Cl)c3Cl)CCN2C1=O meas_value="< 10 µM"
compound="O=C1[C@H]2C[C@@H](c3c(O)ccc(Cl)c3Cl)CCN2C(=O)CN1C1CC(O)C1 (single isomer, unassigned; isomer 4) [Compound 5]" meas_value="< 10 µM"
compound="O=C1NC(=O)N2CC[C@@H](c3c(O)ccc(Cl)c3Cl)C[C@@H]12 (single isomer, unassigned; diastereoisomer 2)" meas_value="< 1 µM"
